measurement description: in vitro
measurement parameters: human

| compound | EC50 / nM |
| --- | --- |
| CCCC(=O)OCN(C(=O)[C@@H](NC(=O)[C@H]1CCCCN1C)C(C)CC)[C@H](C[C@@H](OC(C)=O)c1nc(C(=O)N[C@@H](Cc2ccc(O)cc2)C[C@H](C)C(=O)NNC(=O)OCCSSC[C@H](NC(=O)[C@H](CC(=O)O)NC(=O)[C@@H](N)CNC(=O)CCC(=O)N2Cc3ccccc3-c3c(nnn3CCOCCOCCOCCNC(=O)O[C@@H]([C@@H]3OC(C(=O)O)=C[C@H](NC(=N)N)[C@H]3NC(C)=O)[C@H](O)CO)-c3ccccc32)C(=O)O)cs1)C(C)C (stereo partly shown) | 5.2 |
